tested on: Mycobacterium tuberculosis; assay: Cornell - Phenotypic assay to identify agents that inhibit growth of Mycobacterium tuberculosis; assay type: functional; design: scale not given: direction of the effect not stated beside the values; conditions: 10 mM as filed; unlikely as a test dose
The whole screen tested about 53,000 compounds, of which about 900 (1.7%) showed an effect of 50% or more. For the sample, strong results were picked, then their nearest neighbours and some compounds at random.
# Percent Effect annotations
Field: numeric (%). Do not append units.

Reference set, count: 4
CN(CCNC(=O)c1cnc(-c2ccccc2)nc1)S(C)(=O)=O; -18.18
O=C(COc1ccc2c(c1)CCC2)N1CCCC(n2cccn2)C1 (stereo not given); -23.81
O=C(Nc1cccc(OCc2cccc(F)c2)c1)C1COCCO1 (stereo not given); 108
CCOC(=O)NCCC(O)c1ccoc1 (stereo not given); 23.86

(Q) // Percent Effect lookup, key: Cc1cc(C(=O)Nc2cccn(Cc3ccc(F)cc3)c2=O)no1
(A) 24.65

(Q) // Percent Effect lookup, key: Cc1ccc(NC(=O)CNc2cccc3c2CCCC3)c(Br)c1
(A) 51.04

(Q) // Percent Effect lookup, key: Cc1csc(N2CCCN(C(=O)c3csc(C)n3)CC2)n1
(A) 20.78

(Q) // Percent Effect lookup, key: O=C(Nc1cccc(N2CCCC2)c1)C1CCCN1c1nccs1 (stereo not given)
(A) 57.22

(Q) // Percent Effect lookup, key: Cc1nc(C)c(C(=O)N2CCc3nnc(C4CCCCN4C)n3CC2)s1 (stereo not given)
(A) 54.31

(Q) // Percent Effect lookup, key: CCNCCOc1ccc(-c2cc(N)nc3[nH]ccc23)cc1
(A) 21.99

(Q) // Percent Effect lookup, key: CC(=O)c1cccc(NC(=O)Cn2cc(I)cn2)c1
(A) 18.59

(Q) // Percent Effect lookup, key: O=C(c1nc(Cc2c[nH]c3ccccc23)no1)N1CCCCC1
(A) -4.941

(Q) // Percent Effect lookup, key: c1cc(CNc2ncc(-c3cnccn3)c(C3CC3)n2)ccn1
(A) -5.136

(Q) // Percent Effect lookup, key: CC(NC(=O)c1cc(-c2cccc(Cl)c2)no1)C(=O)N(C)C (stereo not given)
(A) 9.545

(Q) // Percent Effect lookup, key: CC(C)N1CC2(CCCN(c3ccnc4ccccc34)C2)CCC1=O (stereo not given)
(A) 17.47

(Q) // Percent Effect lookup, key: CN1CCCN(C(=O)c2cnsn2)c2cc(Cl)ccc21
(A) 23.17

(Q) // Percent Effect lookup, key: COc1ccc(NC(=O)Cn2nc(C)c(C)cc2=O)c(OC)c1
(A) 11.71

(Q) // Percent Effect lookup, key: Cc1cc2c(=O)n3c(nc2s1)CCN(C(=O)c1sc(C)nc1C)CC3
(A) 10.24

(Q) // Percent Effect lookup, key: CCOc1ccc(NC(=O)N2CCC(n3cncn3)CC2)cc1Cl
(A) -30.56

(Q) // Percent Effect lookup, key: O=C(NCc1ccccn1)[C@@]12CCO[C@@H]1CCN(Cc1ccccn1)C2.O=C(O)C(F)(F)F.O=C(O)C(F)(F)F.O=C(O)C(F)(F)F
(A) -14.31

(Q) // Percent Effect lookup, key: O=C(NCC(O)c1ccoc1)Nc1cccs1 (stereo not given)
(A) 104.6

(Q) // Percent Effect lookup, key: CS(=O)(=O)c1cccc(OCC(=O)N2CCCC2c2ccccc2Cl)c1 (stereo not given)
(A) -2.872

(Q) // Percent Effect lookup, key: CN(C)CCC1CCN(c2cc(N3CCCC3CO)ncn2)CC1 (stereo not given)
(A) -19.44

(Q) // Percent Effect lookup, key: O=C(Nc1cccc2c1CCCC2)C1CCCN1c1nccs1 (stereo not given)
(A) -2.486

(Q) // Percent Effect lookup, key: Cc1noc([C@]23COC[C@H]2CN(C(=O)COC2CCCC2)C3)n1
(A) 1.713
